Assay: Brain pharmacokinetic studies in rats
Assay type: in vivo, Sprague-Dawley rats
Conditions: Sprague-Dawley, rat; brain, rats, iv, 2 mg/kg, solution
Measured Quantity: half-life (h)
Report as a plain number; the unit h is understood.

half-life measured on [2H]C([2H])([2H])CC(=O)c1cnc(NC(=O)C2CC2)cc1Nc1nn(C)c2ccc([C@H](O)C(F)(F)F)c(OC)c12 [Example 54A] = 1.64

----------
Target: JAK1-JH2 domain (Homo sapiens)
Construct: JAK1-JH2 domain or TYK2-JH2 domain enzyme in assay buffer
Test: Binding activity test for JH2 domain of JAK1 (Tb-antibody/tracer FRET)
Conditions: JH2 domain enzyme; 60 min at 25°C, then 4°C overnight; read-out: JAK1 JH2 Binding IC50
Note to self: use MET only for IC50 readings below 20 nM; a reading exactly at 20 nM still gets NOT MET.

[Q] Say whether its IC50 is strictly beneath 20 nM. Entry: COC(=O)c1cnc(NC(=O)C2CC2)cc1Nc1n[nH]c2ccc(C(OC)C(F)(F)F)c(OC)c12 (stereo not shown)
[A] NOT MET

[Q] Say whether its IC50 is strictly beneath 20 nM. Entry: COC(=O)c1cnc(Nc2ccn(C)n2)cc1Nc1nn(C)c2ccc([C@H](OC)C(F)(F)F)c(OC)c12
[A] NOT MET

[Q] Say whether its IC50 is strictly beneath 20 nM. Entry: COC(=O)c1cnc(NC(=O)C2CC2)cc1Nc1nn(C)c2ccc(C(OC)C(F)F)c(OC)c12 (stereo not shown)
[A] MET

[Q] Say whether its IC50 is strictly beneath 20 nM. Entry: [2H]C([2H])([2H])O[C@@H](c1ccc2c(c(Nc3cc(NC(=O)C4CC4)ncc3C(=O)OC)nn2C)c1OC)C(F)(F)F [Example 50B]
[A] NOT MET

[Q] Say whether its IC50 is strictly beneath 20 nM. Entry: CCC(F)(F)c1cnc(NC(=O)C2CC2)cc1Nc1nccc(-c2cnn(C)n2)c1OC
[A] NOT MET

[Q] Say whether its IC50 is strictly beneath 20 nM. Entry: [2H]C([2H])([2H])NC(=O)c1cnc(NC(=O)C2CC2)cc1Nc1nn(C)c2ccc([C@@H](O)C(F)(F)F)c(OC)c12 [Example 49B]
[A] MET

[Q] Say whether its IC50 is strictly beneath 20 nM. Entry: COC(=O)c1cnc(NC(=O)C2CC2)cc1Nc1nn(C)c2ccc([C@H](O)C(F)(F)F)c(OC)c12 [Example 48A]
[A] NOT MET

----------
Please provide measured IC50 for the entries that follow.
Target: JAK2 (Homo sapiens, UniProt O60674)
Sequence (O60674 849-1124 limits assumed): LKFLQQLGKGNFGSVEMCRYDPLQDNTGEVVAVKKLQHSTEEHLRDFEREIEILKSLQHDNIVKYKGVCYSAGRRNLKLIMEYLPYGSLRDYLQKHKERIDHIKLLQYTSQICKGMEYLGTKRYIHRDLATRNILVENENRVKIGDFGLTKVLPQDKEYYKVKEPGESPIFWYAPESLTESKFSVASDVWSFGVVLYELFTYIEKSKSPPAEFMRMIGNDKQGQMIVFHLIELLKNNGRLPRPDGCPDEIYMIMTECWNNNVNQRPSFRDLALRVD

IC50 measured on [2H]C([2H])([2H])NC(=O)c1cnc(Nc2cc(C)nc(C)n2)cc1Nc1cnn2ccc([C@H](O)C(F)(F)F)c(OC)c12 = > 20 µM

IC50 measured on [2H]C([2H])([2H])NC(=O)c1cnc(Nc2ccn(C)n2)cc1Nc1cnn2ccc([C@H](O)C(F)(F)F)c(OC)c12 = > 20 µM

IC50 measured on [2H]C([2H])([2H])NC(=O)c1cnc(NC(=O)C2CC2)cc1Nc1cnn2ccc([C@@H](O)C(F)(F)F)c(OC)c12 = > 20 µM

IC50 measured on [2H]C([2H])([2H])NC(=O)c1cnc(NC(=O)C2CC2)cc1Nc1nn(C)c2ccc([C@H](O)C(F)(F)F)c(OC)c12 [Example 49A] = > 10 µM

----------
Experiment: Microsomal metabolic stability assay
Assay type: in vitro ADME
Settings: human, liver microsomes, pH 7.4; 0.5 mg/mL microsomal protein, 1 µM test article, 2 mM NADPH; read-out: Human LM Clint
microsomal CLint at 1 µM vs 20 µL/min/mg: at or above is fulfilled, below is not fulfilled.

[Q] Say whether COC(=O)c1cnc(NC(=O)C2CC2)cc1Nc1nsc2ccc(C(OC)C(F)(F)F)c(OC)c12 (stereo not drawn) [Example 67] shows microsomal CLint at 1 µM of 20 µL/min/mg or more.
[A] not fulfilled

[Q] Say whether [2H]C([2H])([2H])NC(=O)c1nnc(NC(=O)C2CC2)cc1Nc1cnn2ccc([C@H](O)C(F)(F)F)c(OC)c12 [Example 30] shows microsomal CLint at 1 µM of 20 µL/min/mg or more.
[A] not fulfilled

[Q] Say whether [2H]C([2H])([2H])NC(=O)c1cnc(NC(=O)C2CC2)cc1Nc1cnn2ccc([C@H](O)C(F)(F)F)c(OC)c12 [Example 7A] shows microsomal CLint at 1 µM of 20 µL/min/mg or more.
[A] not fulfilled

[Q] Say whether COC(=O)c1cnc(NC(=O)C2CC2)cc1Nc1nn(C)c2ccc([C@H](OC)C(F)(F)F)c(OC)c12 [Example 45B] shows microsomal CLint at 1 µM of 20 µL/min/mg or more.
[A] not fulfilled

[Q] Say whether [2H]C([2H])([2H])O[C@@H](c1ccc2c(c(Nc3cc(NC(=O)C4CC4)ncc3C(=O)OC)nn2C([2H])([2H])[2H])c1OC)C(F)(F)F [Example 53B] shows microsomal CLint at 1 µM of 20 µL/min/mg or more.
[A] not fulfilled

[Q] Say whether [2H]C([2H])([2H])NC(=O)c1cnc(NC(=O)C2CC2)cc1Nc1cnn2ccc(COC([2H])([2H])[2H])c(OC)c12 [Example 29] shows microsomal CLint at 1 µM of 20 µL/min/mg or more.
[A] fulfilled

----------
Please provide measured pIC50 for the entries that follow.
Target: JAK1-JH2 domain (Homo sapiens, UniProt P23458)
Construct: JAK1-JH2 domain or TYK2-JH2 domain enzyme in assay buffer
Sequence (P23458 583-855 limits assumed): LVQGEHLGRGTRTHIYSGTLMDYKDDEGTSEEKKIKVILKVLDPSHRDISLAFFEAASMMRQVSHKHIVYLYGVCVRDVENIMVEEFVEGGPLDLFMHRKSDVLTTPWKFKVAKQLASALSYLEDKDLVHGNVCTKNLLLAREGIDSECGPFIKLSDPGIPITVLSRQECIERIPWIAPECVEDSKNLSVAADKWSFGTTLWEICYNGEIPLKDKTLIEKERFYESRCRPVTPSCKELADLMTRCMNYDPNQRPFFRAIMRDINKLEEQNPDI
Assay: Binding activity test for JH2 domain of JAK1 (Tb-antibody/tracer FRET)
Details: JH2 domain enzyme; 60 min at 25°C, then 4°C overnight; read-out: JAK1 JH2 Binding IC50
pIC50: −log10 of the molar value.

pIC50 measured on [2H]C([2H])([2H])NC(=O)c1cnc(NC(=O)[C@@H]2C[C@@H]2F)cc1Nc1nn(C)c2ccc([C@H](O)C(F)(F)F)c(OC)c12 = 8.41

pIC50 measured on [2H]C([2H])([2H])OC(=O)c1cnc(NC(=O)C2CC2)cc1Nc1ncn2ncc(C(OC)C(F)(F)F)c2c1OC (stereo not drawn) = < 6.53

pIC50 measured on [2H]C([2H])([2H])NC(=O)c1cnc(NC(=O)C2CC2)cc1Nc1cnn2ccc(C(C)(C)O)c(C)c12 = < 6.53

----------
Please provide measured Kp for the entries that follow.
Test: Brain pharmacokinetic studies in rats
Assay type: in vivo, Sprague-Dawley rats
Conditions: Sprague-Dawley, rat; brain, rats, iv, 3 mg/kg, solution; read-out: Brain AUC/Systemic AUC
Experimental: Pharmacokinetic profiles of test articles were evaluated in fasted Sprague-Dawley rats. Different kinds of formulations were designed to ensure test articles fully dissolved and wouldn't precipitate in 1:10 SGF or FaSSIF dilution. Typically, Rats were dosed with 3 mg/kg and 5 mg/kg by intravenous injection and oral gavage, respectively. […] Dry the tissue on filtrate paper, which should be placed on ice, and then weigh the brain tissue and store at -70 °C and analyzed by LC/MS/MS for quantification. […]
Output: the number by itself.

Kp measured on COC(=O)c1cnc(NC(=O)C2CC2)cc1Nc1nn(C)c2ccc([C@H](O)C(F)(F)F)c(OC)c12 [Example 48A] = 0.19

Kp measured on COC(=O)c1cnc(NC(=O)C2CC2)cc1Nc1cnn2ccc([C@H](O)C(F)(F)F)c(OC)c12 = 0.11

Kp measured on COC(=O)c1cnc(NC(=O)C2CC2)cc1Nc1cnn2ccc([C@H](OC)C(F)(F)F)c(OC)c12 = 1.99

Kp measured on COC(=O)c1cnc(NC(=O)C2CC2)cc1Nc1nn(C)c2ccc([C@H](OC)C(F)(F)F)c(OC)c12 [Example 45B] = 0.96

----------
Please provide measured half-life at 1 µM for the entries that follow.
Assay: Microsomal metabolic stability assay
Assay type: in vitro ADME
Details: human, liver microsomes, pH 7.4; 0.5 mg/mL microsomal protein, 1 µM test article, 2 mM NADPH; read-out: Human LM T1/2
Report as a plain number; the unit h is understood.

half-life at 1 µM measured on [2H]C([2H])([2H])NC(=O)c1cnc(NC(=O)C2CC2)cc1Nc1cnn2ccc([C@@H](O)C(F)(F)F)c(OC)c12 [Example 7B] = 2.14

half-life at 1 µM measured on [2H]C([2H])([2H])NC(=O)c1cnc(NC(=O)[C@@H]2C[C@@H]2F)cc1Nc1cnn2ccc(C(O)C(F)(F)F)c(OC)c12 (single isomer, unassigned) [Example 15A] = 1.94

half-life at 1 µM measured on [2H]C([2H])([2H])NC(=O)c1cnc(NC(=O)C2CC2)cc1Nc1cnn2cnc(OC)c(OC)c12 [Example 35] = 4.04

----------
Target: TYK2-JH2 domain (Homo sapiens)
Construct: JAK1-JH2 domain or TYK2-JH2 domain enzyme in assay buffer
Sequence (P29597 589-875 limits assumed): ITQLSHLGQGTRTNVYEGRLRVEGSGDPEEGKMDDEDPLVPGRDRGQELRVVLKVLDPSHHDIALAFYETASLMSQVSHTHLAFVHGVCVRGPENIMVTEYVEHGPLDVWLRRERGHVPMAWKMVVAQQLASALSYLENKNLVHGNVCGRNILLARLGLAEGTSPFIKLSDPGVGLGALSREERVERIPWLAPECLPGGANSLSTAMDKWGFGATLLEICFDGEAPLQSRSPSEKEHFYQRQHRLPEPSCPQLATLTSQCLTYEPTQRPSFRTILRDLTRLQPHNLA
Experiment: Binding activity test for JH2 domain of TYK2 (Tb-antibody/tracer FRET)
Settings: ratio of JAK1 JH2 to TYK2 JH2 binding IC50
Measured Quantity: JAK1/TYK2 selectivity
Output: the number by itself.

Entry [2H]C([2H])([2H])NC(=O)c1cnc(NC(=O)C2CC2)cc1Nc1cnn2ccc([C@H](OC)C(F)(F)F)c(OC)c12 under TYK2-JH2 domain (Homo sapiens) had JAK1/TYK2 selectivity of 128.0

Entry COC(=O)c1cnc(NC(=O)C2CC2)cc1Nc1nccc(-c2cnn(C)n2)c1OC under TYK2-JH2 domain (Homo sapiens) had JAK1/TYK2 selectivity of 156.97

Entry [2H]C([2H])([2H])OC(=O)c1cnc(NC(=O)C2CC2)cc1Nc1cnn2ccc([C@H](OC([2H])([2H])[2H])C(F)(F)F)c(OC)c12 under TYK2-JH2 domain (Homo sapiens) had JAK1/TYK2 selectivity of 176.08

Entry [2H]C([2H])([2H])NC(=O)c1cnc(NC(=O)C2CC2)cc1Nc1cnn2cnc(OC)c(OC)c12 under TYK2-JH2 domain (Homo sapiens) had JAK1/TYK2 selectivity of 11.2

Entry [2H]C([2H])([2H])n1nc(Nc2cc(NC(=O)C3CC3)ncc2C(=O)OC)c2c(OC)c([C@H](OC)C(F)(F)F)ccc21 [Example 52A] under TYK2-JH2 domain (Homo sapiens) had JAK1/TYK2 selectivity of 501.71

Entry CCn1nc(Nc2cc(NC(=O)C3CC3)ncc2C(=O)OC)c2c(OC)c(C(OC)C(F)(F)F)ccc21 (single isomer, unassigned) [Example 66B] under TYK2-JH2 domain (Homo sapiens) had JAK1/TYK2 selectivity of 719.87

Entry [2H]C([2H])([2H])CC(=O)c1cnc(NC(=O)C2CC2)cc1Nc1nn(C)c2ccc([C@H](O)C(F)(F)F)c(OC)c12 [Example 54A] under TYK2-JH2 domain (Homo sapiens) had JAK1/TYK2 selectivity of 32.37

Entry [2H]C([2H])([2H])NC(=O)c1cnc(NC(=O)C2CC2)cc1Nc1cnn2ccc(C(O)C(F)(F)F)c(OC)c12 (stereo not shown) under TYK2-JH2 domain (Homo sapiens) had JAK1/TYK2 selectivity of 74.9

Entry COC(=O)c1cnc(NC(=O)C2CC2)cc1Nc1nsc2ccc(C(OC)C(F)(F)F)c(OC)c12 (single isomer, unassigned) [Example 67B] under TYK2-JH2 domain (Homo sapiens) had JAK1/TYK2 selectivity of 372.97

Entry [2H]C([2H])([2H])O[C@@H](c1ccc2c(c(Nc3cc(NC(=O)C4CC4)ncc3C(=O)OC)nn2C)c1OC)C(F)(F)F [Example 50B] under TYK2-JH2 domain (Homo sapiens) had JAK1/TYK2 selectivity of 162.94

Entry COC(=O)c1cnc(NC(=O)C2CC2)cc1Nc1nn(C)c2ccc([C@H](O)C(F)(F)F)c(OC)c12 [Example 48A] under TYK2-JH2 domain (Homo sapiens) had JAK1/TYK2 selectivity of 158.89
